Known GI50 of a selection of compounds
System: A498
measurement description: NCI tumour cell line growth inhibition, 48 h
The source made the active and inactive calls. No stated cut-off is given here; in the data, active = GI50 up to about 1.1 µM and inactive = higher.
measurement label: GI50

>>> experimental_result("C=C(Br)CN(C#N)CC(=C)Br")
"> 100 µM (inactive)"
>>> experimental_result("N#CCCN(c1ccc(/C=N/c2ccccc2)cc1)S(=O)(=O)c1ccccc1")
"> 100 µM (inactive)"
>>> experimental_result("Nc1nc(N)c(-c2ccccc2)c(C(=O)Nc2ccc(Cl)c(Cl)c2)n1")
"> 100 µM (inactive)"
>>> experimental_result("CCOC(=O)C1C=C2O[C@@H]3OC4(CCCCC4)O[C@@H]3C2[C@H]2C(=O)C=CC(=O)[C@@]12C(=O)OC (stereo not given in full)")
"18.3 µM (inactive)"
>>> experimental_result("Cn1/c(=N\\N=C2\\C=C3CCCCC3(C)CC2)sc2ccccc21 (stereo not given)")
"> 100 µM (inactive)"
